# System: SR leukemia
# assay method text: NCI-60 one-dose screen, 48 h (100 = growth as untreated, 0 = no growth, -100 = all killed)
# run parameters: 10 µM unless noted
Compounds without any hit were thinned out: in the full panel of roughly 83,000, 20% have a hit.

- given smiles: "O=C(Nc1cccc(NC(=O)C2CCCCC2)c1)c1ccccn1"
  growth (%): 88.9
- given smiles: "COc1ccc(/C=C/C(=O)c2cc3c(N)c(C(=O)Nc4ccc(OC)cc4)sc3nc2C)cc1"
  growth (%): 11.8
- given smiles: "CN(C)c1ccc(-c2cc(-c3ccc(Nc4nc(Nc5ccc(Cl)cc5)nc(Nc5ccc(Cl)cc5)n4)cc3)nc(N)c2C#N)cc1"
  growth (%): 40.6
